Taken from ChEMBL document CHEMBL5500384.

System: Mycobacterium tuberculosis
Experiment: Potentiation of rifampicin antitubercular activity against multidrug resistant Mycobacterium tuberculosis BLG3381 assessed as decrease in rifampicin MIC99.9 at 3.125 ug/ml by broth dilution method (reference value: 64 ug/ml)
Assay type: functional
Conditions: dose 3.125 µg/ml
measure: MIC99.9 (µg/mL)
One number for each entry, in µg/mL.

Study these solved cases before continuing.
O=C1C(Cl)=C(N2C(=O)C(Cl)C2c2ccc(Cl)cc2)C(=O)c2ccccc21 (stereo not given)
0.1
O=C1C(Cl)=C(N2C(=O)C(Cl)C2c2ccc([N+](=O)[O-])cc2)C(=O)c2ccccc21 (stereo not given)
0.25
CCOc1cc(C2C(Cl)C(=O)N2C2=C(Cl)C(=O)c3ccccc3C2=O)ccc1O (stereo not given)
0.5
COc1ccc(C2C(Cl)C(=O)N2C2=C(Cl)C(=O)c3ccccc3C2=O)cc1 (stereo not given)
1

Now turn to the next compound.
Hello, please tell me recorded MIC99.9 for this one: CN(C)c1ccc(C2C(Cl)C(=O)N2C2=C(Cl)C(=O)c3ccccc3C2=O)cc1 (stereo not given)
4
